Data origin: paper PMC8152814

# ASSAY SUMMARY: in vitro
# ASSAY CONTEXT: mouse, microsomes, pH 7.4
VALUE KIND: half-life at 0.75 h, 3 µM
The number alone won't do; follow it with the unit.

# query: half-life at 0.75 h, 3 µM of entry COC(=O)c1cc(OC[C@@H](COS(=O)(=O)[O-])OS(=O)(=O)[O-])ccc1OCCCCOS(=O)(=O)[O-].[Na+].[Na+].[Na+] [Compound S-10]
69.3 h

====

// reported microsomal CLint at 3 µM for each item listed
# ASSAY SUMMARY: Microsomal metabolic stability, rat liver microsomes
# Format: in vitro ADME
# ASSAY CONTEXT: liver microsomes (pooled), pH 7.4
Numbers only; they are read as µL/min/mg.

MOLECULE	UNITS	microsomal CLint at 3 µM
COC(=O)c1cc(OC[C@@H](COS(=O)(=O)[O-])OS(=O)(=O)[O-])ccc1OCC(COS(=O)(=O)[O-])OS(=O)(=O)[O-].[Na+].[Na+].[Na+].[Na+] (mixture of isomers) [α-4]	µL/min/mg	9.56

Shift focus to the following entry.
# query: microsomal CLint at 3 µM of entry O=C([O-])c1cc(OC[C@H](COS(=O)(=O)[O-])OS(=O)(=O)[O-])ccc1OCC(COS(=O)(=O)[O-])OS(=O)(=O)[O-].[Na+].[Na+].[Na+].[Na+].[Na+] (mixture of isomers) [β-5]
0.649

====

// reported half-life at 0.75 h, 3 µM for each item listed
# ASSAY SUMMARY: Microsomal metabolic stability, rat liver microsomes
# Type: in vitro ADME
# ASSAY CONTEXT: liver microsomes (pooled), pH 7.4, 3 µM, 0.5 mg/mL protein, read-out: RLM t1/2
Numbers only; they are read as h.

In [3]: df
Out[3]:
                                 smiles_str                 value_kind  reported
0  COC(=O)c1cc(OC[C@@H](COS(=O)(=O)[O-])OS(=O)(=O)[O-])ccc1OCCCCOS(=O)(=O)[O-].[Na+].[Na+].[Na+]  half-life at 0.75 h, 3 µM      1.82

Shift focus to the following entry.
# query: half-life at 0.75 h, 3 µM of entry "COC(=O)c1cc(OC[C@H](COS(=O)(=O)[O-])OS(=O)(=O)[O-])ccc1OCCCCOS(=O)(=O)[O-].[Na+].[Na+].[Na+]"
5.63

====

# ASSAY SUMMARY: Microsomal metabolic stability, rat liver microsomes
# Assay type: in vitro ADME
# ASSAY CONTEXT: liver microsomes (pooled), pH 7.4
VALUE KIND: microsomal CLint at 0.75 h, 3 µM (µL/min/mg)
Numbers only; they are read as µL/min/mg.

# query: microsomal CLint at 0.75 h, 3 µM of entry COC(=O)c1cc(OC[C@H](COS(=O)(=O)[O-])OS(=O)(=O)[O-])ccc1OCCCCOS(=O)(=O)[O-].[Na+].[Na+].[Na+] [Compound R-10]
4.11

# query: microsomal CLint at 0.75 h, 3 µM of entry COC(=O)c1cc(OC[C@@H](COS(=O)(=O)[O-])OS(=O)(=O)[O-])ccc1OCCCCOS(=O)(=O)[O-].[Na+].[Na+].[Na+] [Compound S-10]
12.8
